Attribution: patent US20100010057A1

What follows is a collection of IC50 values obtained with PI3Kγ (human) (Homo sapiens).
Sequence (P48736 whole entry): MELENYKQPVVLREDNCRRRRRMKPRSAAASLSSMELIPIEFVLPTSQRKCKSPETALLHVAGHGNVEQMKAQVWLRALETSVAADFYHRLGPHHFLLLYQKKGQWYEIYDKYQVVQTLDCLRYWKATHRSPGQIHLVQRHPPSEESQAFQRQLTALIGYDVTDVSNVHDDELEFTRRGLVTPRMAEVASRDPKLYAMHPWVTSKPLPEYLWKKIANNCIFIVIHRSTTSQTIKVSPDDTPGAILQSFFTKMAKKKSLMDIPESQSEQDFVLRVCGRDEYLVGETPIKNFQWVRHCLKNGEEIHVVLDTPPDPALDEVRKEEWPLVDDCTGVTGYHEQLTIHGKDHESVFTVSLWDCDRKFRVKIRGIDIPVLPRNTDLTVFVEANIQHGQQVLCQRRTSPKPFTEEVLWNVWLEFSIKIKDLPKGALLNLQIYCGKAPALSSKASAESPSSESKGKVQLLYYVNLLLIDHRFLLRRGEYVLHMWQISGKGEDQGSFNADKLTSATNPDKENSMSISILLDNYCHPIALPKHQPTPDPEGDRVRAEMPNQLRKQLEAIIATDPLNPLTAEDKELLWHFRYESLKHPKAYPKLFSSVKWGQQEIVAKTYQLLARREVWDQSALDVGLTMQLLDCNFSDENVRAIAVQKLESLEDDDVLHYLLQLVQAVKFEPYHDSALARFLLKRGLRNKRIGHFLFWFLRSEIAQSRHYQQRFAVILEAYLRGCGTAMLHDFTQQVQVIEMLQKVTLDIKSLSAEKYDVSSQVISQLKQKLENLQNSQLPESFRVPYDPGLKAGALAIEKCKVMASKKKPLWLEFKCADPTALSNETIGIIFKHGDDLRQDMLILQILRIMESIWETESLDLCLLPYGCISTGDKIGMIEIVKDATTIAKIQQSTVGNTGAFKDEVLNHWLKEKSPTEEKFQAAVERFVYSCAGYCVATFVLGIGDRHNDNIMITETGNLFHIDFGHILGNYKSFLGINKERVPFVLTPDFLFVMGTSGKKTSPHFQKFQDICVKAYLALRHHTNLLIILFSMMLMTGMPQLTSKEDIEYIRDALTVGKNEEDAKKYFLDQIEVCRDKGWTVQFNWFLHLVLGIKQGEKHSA

[
  {
    "Molecule": "Cc1nc(NC(=O)CCCN[C@H](C(=O)OC2CCCC2)C2CCCCC2)sc1-c1ccc(Cl)c(S(C)(=O)=O)c1",
    "IC50": "> 1 µM"
  },
  {
    "Molecule": "Cc1nc(NCCCN[C@@H](CC(C)C)C(=O)O)sc1-c1ccc(Cl)c(S(C)(=O)=O)c1",
    "IC50": "> 1 µM"
  },
  {
    "Molecule": "Cc1nc(NC(=O)CCCN[C@@H](COC(C)(C)C)C(=O)O)sc1-c1ccc(Cl)c(S(C)(=O)=O)c1",
    "IC50": "> 1 µM"
  },
  {
    "Molecule": "Cc1nc(NCC2CCC(N[C@@H](CC(C)C)C(=O)O)CC2)sc1-c1ccc(Cl)c(S(C)(=O)=O)c1 (stereo partly shown)",
    "IC50": "> 1 µM"
  },
  {
    "Molecule": "Cc1nc(NC(=O)CCN[C@@H](C)C(=O)O)sc1-c1ccc(Cl)c(S(C)(=O)=O)c1",
    "IC50": "> 1 µM"
  }
]

Query: // map "CC(=O)Nc1nc(C)c(-c2ccc(Cl)c(S(=O)(=O)N[C@@H](CO)C(=O)OC3CCCC3)c2)s1" to recorded IC50 (system: PI3Kγ (human) (Homo sapiens))
Reply: 0.1 to 1 µM

Query: // map "Cc1nc(NC(=O)CCCN[C@@H](Cc2ccccc2)C(=O)O)sc1-c1ccc(Cl)c(S(C)(=O)=O)c1" to recorded IC50 (system: PI3Kγ (human) (Homo sapiens))
Reply: > 1 µM

Query: // map "Cc1nc(NC(=O)CCCN[C@@H](CO)C(=O)O)sc1-c1ccc(Cl)c(S(C)(=O)=O)c1" to recorded IC50 (system: PI3Kγ (human) (Homo sapiens))
Reply: > 1 µM

Query: // map Cc1nc(NCC2CCC(N[C@@H](CC(C)C)C(=O)OC(C)(C)C)CC2)sc1-c1ccc(Cl)c(S(C)(=O)=O)c1 (stereo partly shown) to recorded IC50 (system: PI3Kγ (human) (Homo sapiens))
Reply: > 1 µM

Query: // map "Cc1nc(NC(=O)CCCN[C@@H](COC(C)(C)C)C(=O)OC(C)(C)C)sc1-c1ccc(Cl)c(S(C)(=O)=O)c1" to recorded IC50 (system: PI3Kγ (human) (Homo sapiens))
Reply: > 1 µM

Query: // map "CC(=O)Nc1nc(C)c(-c2ccc(Cl)c(S(=O)(=O)N[C@@H](C)C(=O)OC3CCCC3)c2)s1" to recorded IC50 (system: PI3Kγ (human) (Homo sapiens))
Reply: < 0.1 µM

Query: // map "Cc1nc(NC(=O)N[C@@H](COC(C)(C)C)C(=O)O)sc1-c1ccc(Cl)c(S(C)(=O)=O)c1" to recorded IC50 (system: PI3Kγ (human) (Homo sapiens))
Reply: > 1 µM

Query: // map "Cc1nc(NC(=O)CCCN[C@@H](CC(C)C)C(=O)OC2CCCC2)sc1-c1ccc(Cl)c(S(C)(=O)=O)c1" to recorded IC50 (system: PI3Kγ (human) (Homo sapiens))
Reply: 0.1 to 1 µM

Query: // map "Cc1nc(NC(=O)CCCN[C@@H](COP(=O)(O)O)C(=O)OC2CCCC2)sc1-c1ccc(Cl)c(S(C)(=O)=O)c1" to recorded IC50 (system: PI3Kγ (human) (Homo sapiens))
Reply: < 0.1 µM

Query: // map "Cc1nc(NC(=O)CCN[C@@H](C)C(=O)OC2CCCC2)sc1-c1ccc(Cl)c(S(C)(=O)=O)c1" to recorded IC50 (system: PI3Kγ (human) (Homo sapiens))
Reply: > 1 µM

Query: // map "Cc1nc(NC(=O)CCCN[C@@H](C)C(=O)OC2CCCC2)sc1-c1ccc(Cl)c(S(C)(=O)=O)c1" to recorded IC50 (system: PI3Kγ (human) (Homo sapiens))
Reply: > 1 µM
